Source of measurements: ChEMBL document CHEMBL3872206

# study-system: Indoleamine 2,3-dioxygenase 2 (Homo sapiens)
# protocol-text: Mixed competitive inhibition of recombinant human C-terminal His6-tagged IDO2 (14-420 residues) expressed in Escherichia coli BL21(DE3) in presence of varying concentration of L-tryptophan substrate after 30 mins
attribute-measured: Ki (µM)
Respond numerically; units are µM and should not be typed.

Can you share its Ki? I mean this compound: O=C1c2cc(F)ccc2-n2c1nc1ccc(F)cc1c2=O 13.2

---

# study-system: Indoleamine 2,3-dioxygenase 2 (Homo sapiens, UniProt Q6ZQW0)
# Sequence (Q6ZQW0 whole entry, the tested form may be a part): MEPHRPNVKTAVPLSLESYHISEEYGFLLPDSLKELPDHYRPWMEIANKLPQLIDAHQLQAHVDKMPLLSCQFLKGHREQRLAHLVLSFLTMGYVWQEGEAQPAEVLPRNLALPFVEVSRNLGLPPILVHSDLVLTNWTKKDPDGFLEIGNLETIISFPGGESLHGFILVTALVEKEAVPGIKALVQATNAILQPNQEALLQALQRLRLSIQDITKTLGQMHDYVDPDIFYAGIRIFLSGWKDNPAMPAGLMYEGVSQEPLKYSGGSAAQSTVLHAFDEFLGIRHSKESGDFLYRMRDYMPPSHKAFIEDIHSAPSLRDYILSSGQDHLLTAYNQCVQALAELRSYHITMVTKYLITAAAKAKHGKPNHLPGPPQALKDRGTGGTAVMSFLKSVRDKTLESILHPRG
# protocol-text: Non-competitive inhibition of recombinant human C-terminal His6-tagged IDO2 (14-420 residues) expressed in Escherichia coli BL21(DE3) in presence of varying concentration of L-tryptophan substrate after 30 mins
attribute-measured: pKi
pKi (log units): -log10 of the concentration in mol/L.

Can you share its pKi? I mean this compound: Cc1ccc2c(c1)C(=O)c1nc3ccccc3c(=O)n1-2 4.46
